biological target: Lysine-specific demethylase 4A (Homo sapiens, UniProt O75164)
endpoint-name: pKi
pKi field: float, defined as -log10 of concentration (mol/L).

Find the recorded pKi belonging to CN(C)C[C@H]1C2CCC(c3ccccc3)(C2)[C@H]1O (stereo partly specified) and report it.
3.77

* * *

Exercise: for every item that follows, state its recorded Kd.
Target: Lysine-specific demethylase 4A (Homo sapiens)
Sequence (O75164 whole entry): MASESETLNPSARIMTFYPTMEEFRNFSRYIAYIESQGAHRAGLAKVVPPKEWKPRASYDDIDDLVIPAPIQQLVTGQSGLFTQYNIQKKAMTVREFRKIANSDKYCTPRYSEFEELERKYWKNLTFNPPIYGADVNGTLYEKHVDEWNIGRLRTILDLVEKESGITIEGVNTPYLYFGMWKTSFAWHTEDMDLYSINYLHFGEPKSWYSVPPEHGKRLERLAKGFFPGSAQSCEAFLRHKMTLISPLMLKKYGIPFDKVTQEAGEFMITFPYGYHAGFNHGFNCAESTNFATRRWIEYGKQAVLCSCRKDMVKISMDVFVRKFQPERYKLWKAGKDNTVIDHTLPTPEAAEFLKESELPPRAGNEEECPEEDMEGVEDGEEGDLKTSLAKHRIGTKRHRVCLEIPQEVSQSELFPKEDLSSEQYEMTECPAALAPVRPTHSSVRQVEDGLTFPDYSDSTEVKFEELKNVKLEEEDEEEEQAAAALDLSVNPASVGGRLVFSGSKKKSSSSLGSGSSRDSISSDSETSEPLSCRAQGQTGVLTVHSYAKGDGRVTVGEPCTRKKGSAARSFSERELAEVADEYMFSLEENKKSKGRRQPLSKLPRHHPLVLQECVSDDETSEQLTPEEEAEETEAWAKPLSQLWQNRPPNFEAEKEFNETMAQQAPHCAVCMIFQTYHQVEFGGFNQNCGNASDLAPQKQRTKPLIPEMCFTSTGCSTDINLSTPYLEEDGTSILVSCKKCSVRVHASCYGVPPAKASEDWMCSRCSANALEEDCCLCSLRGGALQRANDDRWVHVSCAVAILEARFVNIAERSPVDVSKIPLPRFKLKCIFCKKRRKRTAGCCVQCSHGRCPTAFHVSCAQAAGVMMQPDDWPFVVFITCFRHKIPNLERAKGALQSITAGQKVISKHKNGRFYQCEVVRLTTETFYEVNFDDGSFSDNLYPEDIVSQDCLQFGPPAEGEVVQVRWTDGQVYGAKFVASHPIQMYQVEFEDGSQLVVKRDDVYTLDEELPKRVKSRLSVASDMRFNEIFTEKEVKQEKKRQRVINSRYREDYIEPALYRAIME
Test: Binding affinity to thrombin cleavable N-terminal 6His tagged and 13C-IVLM labeled human KDM4A tandem TUDOR domain (897 to 1011 residues) expressed in Escherichia coli BL21(DE3)-T1R by ITC method
Square brackets hold non-standard residues; d marks the D form. Peptide text beside a SMILES is read from it. Lys(Me3) = C[N+](C)(C)CCCC[C@H](N)C(=O)O
Numbers only here, please. The scale is µM.

Item CN(C)C[C@H]1C2CCC(c3ccccc3)(C2)[C@H]1O (stereo partly drawn) with Lysine-specific demethylase 4A (Homo sapiens) - Kd?
81.7

Then what about the compound CC(C)C[C@H](NC(=O)[C@@H](NC(=O)[C@H](CCCC[N+](C)(C)C)NC(=O)[C@H](CCCNC(=N)N)NC(=O)[C@H](Cc1cnc[nH]1)NC(=O)[C@H](CCCNC(=N)N)NC(=O)[C@@H](N)CCCCN)C(C)C)C(=O)N[C@@H](CCCNC(=N)N)C(=O)N[C@@H](CC(=O)O)C(=O)N[C@@H](CC(N)=O)C(=O)O (H-KRHR[Lys(Me3)]VLRDN-OH) ?
4.7

Then what about the compound `C[C@H](N)C(=O)N[C@@H](CCCNC(=N)N)C(=O)N[C@H](C(=O)N[C@@H](CCCC[N+](C)(C)C)C(=O)N[C@@H](CCC(N)=O)C(=O)N[C@H](C(=O)N[C@@H](C)C(=O)N[C@@H](CCCNC(=N)N)C(=O)N[C@@H](CCCCN)C(=O)N[C@@H](CO)C(=O)O)[C@@H](C)O)[C@@H](C)O` ?
3
